The values you see were collected from patent US7365053B2.

# Tested on: Staphylococcus epidermidis 270
# experiment.notes: Broth micro-dilution MIC
# Assay type: cell-based
Listed here: items and their measured MIC.

- compound: "CCCCCCCC(=O)NC1(C)CC(OC2c3ccc(c(Cl)c3)Oc3cc4cc(c3OC3OC(CO)C(O)C(O)C3OC3CC(C)(N)C(O)C(C)O3)Oc3ccc(cc3Cl)C(O)C(NC(=O)C(CC(C)C)NC)C(=O)NC(CC(N)=O)C(=O)NC4C(=O)NC3C(=O)NC2C(=O)NC(C(=O)O)c2cc(O)cc(O)c2-c2cc3ccc2O)OC(C)C1O (stereo not drawn) [Example 9, 6′-N-octanoyl-A82846B]"
  MIC: "2 µg/mL"

Query block: # query: MIC of entry CNC(CC(C)C)C(=O)NC1C(=O)NC(CC(N)=O)C(=O)NC2C(=O)NC3C(=O)NC(C(=O)NC(C(=O)O)c4cc(O)cc(O)c4-c4cc3ccc4O)C(OC3CC(C)(NC(=O)c4ccc(-c5ccccc5)cc4)C(O)C(C)O3)c3ccc(c(Cl)c3)Oc3cc2cc(c3OC2OC(CO)C(O)C(O)C2OC2CC(C)(N)C(O)C(C)O2)Oc2ccc(cc2Cl)C1O (stereo not drawn)
Result block: 32 µg/mL
